Test system: Plasmodium falciparum 3D7 asexual blood stage
Experiment: microbe, parasite or virus in culture
Settings: 3D7, read-out: Antiplasmodial IC50 (ABS), PBox compounds, P. falciparum 3D7
Let's look at some compounds and their measured pIC50.
Entry type: numeric. Quantity: pIC50, the -log10 of concentration in molar units.

See these solved cases before continuing.
COc1ccc(OC)c(NCc2ccc3nc(N)nc(N)c3c2Cl)c1 [MMV675968] | 7.52
COc1cccc(-n2nnnc2S(=O)(=O)Cc2ccccc2)c1 [MMV676388] | 5.31
c1ccc(C[C@@H]2CN(c3nccc(Oc4ccc(-n5ccnc5)cc4)n3)CCN2)cc1 [MMV687749] | 5.70

Ask | Entry CCC(Sc1nc2ccccc2o1)C(=O)Nc1nccs1 (stereo not shown) [MMV676383] has what pIC50?
Reply | 5.35

Ask | Entry CC1=Nc2ccc(Cl)cc2C(O)(c2ccc(C)cc2)N1CCN1CCCCC1 (stereo not shown) [MMV688279] has what pIC50?
Reply | 6.49

Ask | Entry c1ccc(-c2nc(NC3CCCCC3)cc(C3CC3)n2)nc1 [MMV021013] has what pIC50?
Reply | 6.34

Ask | Entry N=C(N)Nc1ccc(-c2ccc(-c3ccc(NC(=N)N)c(Cl)c3)o2)cc1Cl [MMV688271] has what pIC50?
Reply | 5.92

Ask | Entry CN1CCC(c2cc(-c3ccncc3)c(-c3ccc(F)cc3)[nH]2)CC1 [MMV688703] has what pIC50?
Reply | 5.50

Ask | Entry COc1cc(C2=NCCN2)cc2cc(-c3ccc(C4=NCCN4)cc3)oc12 [MMV688362] has what pIC50?
Reply | 6.23

Ask | Entry Cc1cnc(N2CCN[C@@H](Cc3ccccc3)C2)nc1Oc1ccc(-n2ccnc2)cc1 [MMV687765] has what pIC50?
Reply | 5.70

Ask | Entry Cc1nc(-c2ccccn2)nc(N2CCC(Cc3ccccc3)C2)c1Cl (stereo not shown) [MMV659004] has what pIC50?
Reply | 5.73

Ask | Entry Cc1ccc2[nH]c(C3CCCNC3)c(-c3ccncc3)c2c1 (stereo not shown) [MMV024311] has what pIC50?
Reply | 6.12

Ask | Entry CCc1ccccc1-n1c(C)cn2c3c(=O)n(C(C(=O)OC)C(C)C)c(=O)n(C)c3nc12 (stereo not shown) [MMV688550] has what pIC50?
Reply | 5.61

Ask | Entry N=C(N)Nc1ccc(-c2ccc(-c3ccc(NC(=N)N)cc3Cl)o2)c(Cl)c1 [MMV688179] has what pIC50?
Reply | 6.23

Ask | Entry Cc1nc(-c2ccccn2)nc(N(C)CCc2ccccc2)c1Cl [MMV658988] has what pIC50?
Reply | 5.66

Ask | Entry c1cncc(NCc2ccc(-c3cc4ccncc4cc3OC3CCNCC3)s2)c1 [MMV023969] has what pIC50?
Reply | 6.23

Ask | Entry COc1cccc(-c2nc3c(N4CCCC4)cccc3n2CC2CCCN2)n1 (stereo not shown) [MMV687703] has what pIC50?
Reply | 5.88

Ask | Entry Brc1cncc(-c2cc(NCCCn3ccnc3)nc(-c3ccccc3)n2)c1 [MMV661713] has what pIC50?
Reply | 5.83

* * *

Test system: NF54-pfs16-LUC-GFP stage IV gametocytes
Experiment: Plasmodium falciparum late stage gametocyte (LSG) image-based assay
Format: cell-based
Settings: Plasmodium falciparum, NF54, read-out: Pf Stage IV GAMS Discovery Biology IC50 µM, stage IV gametocytes, Discovery Biology
PROPERTY MEASURED: IC50 (µM)
Record the value in µM, omitting the unit from your answer.

Ask | Value wanted: IC50 (NF54-pfs16-LUC-GFP stage IV gametocytes) of entry CC(C)=CCC/C(C)=C/CNCCNC1C2CC3CC(C2)CC1C3 (stereo not drawn)
Reply | 1.89

Ask | Value wanted: IC50 (NF54-pfs16-LUC-GFP stage IV gametocytes) of entry CCN(CC)S(=O)(=O)c1ccc(Cl)c(C(=O)Nc2ccc3nc(C)sc3c2)c1
Reply | 0.79

* * *

System: T. cruzi intracellular amastigotes
Assay: Intracellular anti-Trypanosoma cruzi image-based assay (amastigotes)
Assay type: cell-based
Settings: Trypanosoma cruzi; intracellular amastigotes, Discovery Biology; read-out: T cruzi Discovery Biology IC50
PROPERTY MEASURED: pIC50
Entry type: numeric. Quantity: pIC50, the -log10 of concentration in molar units.

Ask | Value wanted: pIC50 (T. cruzi intracellular amastigotes) of entry O=C(Nc1ccc(N2CCNCC2)cc1)c1ccn2ncc(-c3cccc(Cl)c3)c2n1
Reply | 5.33

Ask | Value wanted: pIC50 (T. cruzi intracellular amastigotes) of entry O=C(Nc1nc(-c2ccccn2)cs1)c1cncn1-c1ccccc1
Reply | 5.39

Ask | Value wanted: pIC50 (T. cruzi intracellular amastigotes) of entry COc1ccc(Oc2ccc([C@@H](C)N(C)c3ncc4c(N)nc(N)nc4n3)cc2)cc1
Reply | 7.05

Ask | Value wanted: pIC50 (T. cruzi intracellular amastigotes) of entry CC(c1cc(Cl)cc(Cl)c1)N(C)c1ncc2c(N)nc(N)nc2n1 (centres unmarked)
Reply | 6.72

Ask | Value wanted: pIC50 (T. cruzi intracellular amastigotes) of entry C[C@H](c1ccc2c(c1)CCCC2)N(C)c1ncc2c(N)nc(N)nc2n1
Reply | 7.00

* * *

Test system: Plasmodium falciparum 3D7 asexual blood stage
Assay: microbe, parasite or virus in culture
Settings: 3D7, read-out: IC50 P. falciparum 3D7 ABS
pIC50: −log10 of the molar value.
PROPERTY MEASURED: pIC50

See these solved cases before continuing.
NCC[C@H](O)C(=O)N[C@@H]1C[C@H](N)[C@@H](O[C@H]2O[C@H](CN)[C@@H](O)[C@H](O)[C@H]2O)[C@H](O)[C@H]1O[C@H]1O[C@H](CO)[C@@H](O)[C@H](N)[C@H]1O [Amikacin, reference compound] | < 4.70
COC(=O)Nc1nc2ccc(C(=O)c3ccccc3)cc2[nH]1 [Mebendazole, reference compound] | < 4.70

Continue with the molecule presented below.
Ask | Entry CC(=O)Oc1ccccc1C(=O)Nc1ncc([N+](=O)[O-])s1 [Nitazoxanide, reference compound] has what pIC50?
Reply | < 4.70

* * *

Test system: T. b. brucei 427 bloodstream trypanosomes
Experiment: T. b. brucei resazurin viability assay
Format: cell-based, Trypanosoma brucei brucei
Conditions: Trypanosoma brucei, read-out: T b.brucei Discovery Biology IC50
PROPERTY MEASURED: IC50 (nM)
Record the value in nM, omitting the unit from your answer.

COc1ccc(C2=NN(C3CCCCCC3)C(=O)[C@@H]3CC=CC[C@H]23)cc1OCCCCOc1ccc(-c2nn[nH]n2)cc1 | 500

Ask | Value wanted: IC50 (T. b. brucei 427 bloodstream trypanosomes) of entry Cc1nn(C)c(C)c1NS(=O)(=O)c1c(Cl)cc(-c2ccnc(N3CCNCC3)c2)cc1Cl
Reply | 10

* * *

System: Plasmodium falciparum 3D7 asexual blood stage
Assay: microbe, parasite or virus in culture
Conditions: 3D7, read-out: Antiplasmodial IC50 (ABS), PBox compounds, P. falciparum 3D7
PROPERTY MEASURED: IC50 (nM)
Record the value in nM, omitting the unit from your answer.

COc1ccc(-c2onc(C(F)(F)F)c2-c2ccc(Cl)cc2)c(O)c1 [MMV688766] | 850
Cc1cc(NCCc2ccccc2)nc(NC(=N)Nc2ccc(Cl)cc2)n1 [MMV021660] | 160

Ask | Value wanted: IC50 (Plasmodium falciparum 3D7 asexual blood stage) of entry COc1ccc(C2=NCCN2)cc1-c1cn(-c2cccc(C3=NCCN3)c2)nn1 [MMV688547]
Reply | 1020

Ask | Value wanted: IC50 (Plasmodium falciparum 3D7 asexual blood stage) of entry O=C(Nc1ccc2c(c1)B(O)OC2)c1ccccc1C(F)(F)F [MMV652003]
Reply | 920

Ask | Value wanted: IC50 (Plasmodium falciparum 3D7 asexual blood stage) of entry CN1CCN(S(=O)(=O)c2ccc(-c3ccc4c(Nc5ncc(Cl)cn5)ccnc4c3)cc2)CC1 [MMV688283]
Reply | 660

Ask | Value wanted: IC50 (Plasmodium falciparum 3D7 asexual blood stage) of entry Cc1cccc(-c2nc(Nc3ccncn3)c3sccc3n2)n1 [MMV688122]
Reply | 2110

* * *

Test: in vitro
Details: human
PROPERTY MEASURED: IC50 at 72 h

Ask | Entry CO[C@H]1/C=C/O[C@@]2(C)Oc3c(C)c(O)c4c(O)c(c(/C=N/N5CCN(C)CC5)c(O)c4c3C2=O)NC(=O)/C(C)=C\C=C\[C@H](C)[C@H](O)[C@@H](C)[C@@H](O)[C@@H](C)[C@H](OC(C)=O)[C@@H]1C [Rifampin, reference compound] has what IC50 at 72 h?
Reply | > 20 µM

* * *

Let's look at some compounds and their measured IC50.
System: NF54-pfs16-LUC-GFP stage IV gametocytes
Assay: Plasmodium falciparum late stage gametocyte (LSG) image-based assay
Assay type: cell-based
Details: Plasmodium falciparum, NF54, read-out: Pf Stage IV GAMS Discovery Biology IC50 µM, stage IV gametocytes, Discovery Biology
Record the value in µM, omitting the unit from your answer.

See these solved cases before continuing.
COc1ccc(-c2cnc3ccc(N4CCCC4)nn23)cc1OC | 5.83
Cc1ccc2c(c1C)NC(=O)C21NN=C(c2ccccc2)S1 (centres unmarked) | 1.97
COc1ccc(-c2cnc3ccc(NCc4ccc(S(N)(=O)=O)cc4)nn23)cn1 | 1.17
CN1CCC(NCc2cccc(-c3ccc(S(=O)(=O)NCc4ccccc4)cc3)c2)CC1 | 4.04
COc1cc(-c2cc(-c3ccc(S(C)(=O)=O)cc3)cnc2N)ccc1O | 0.15

Ask | Entry O=C(Nc1ccccc1)c1ccc(-c2cc3ccncc3cc2OC2CCNCC2)s1 has what IC50?
Reply | 4.48

Ask | Entry NS(=O)(=O)c1cccc(-c2ccc3ncc(N4CCOCC4)nc3c2)c1 has what IC50?
Reply | 2.13

Ask | Entry CC(Oc1ccccc1)C(=O)Nc1nc(-c2ccccn2)cs1 (centres unmarked) has what IC50?
Reply | 1.92
